Would you mind telling me the reported growth of each entry?
tested on: OVCAR-5 ovarian; experiment: NCI-60 one-dose screen, 48 h (100 = growth as untreated, 0 = no growth, -100 = all killed); conditions: 10 µM unless noted
The panel holds about 83,000 compounds, 20% with a hit somewhere; the sample as a whole holds those more often.
A number alone suffices; assume %.

Enquiry: Request the reported growth associated with CC(=O)N1C(=S)NC(=O)C1Cn1c(-c2ccccc2)nc2ccccc21 (stereo not drawn)
Return: 103

Enquiry: Looking for the measured growth of `CN1CCN(CCCOc2ccc3nc(Nc4ccc(F)c(F)c4)ccc3c2)CC1` , can you help?
Return: 41

Enquiry: What value of growth has been recorded for this entry: CS(=O)c1cccc(-c2ccc3nc(N)n(-c4ccc(C(F)(F)F)cc4)c(=O)c3c2)c1 (stereo not drawn)
Return: 100

Enquiry: I am curious: what growth value has been reported for `Cc1cc[c-]cc1.Fc1c[c-]c(-c2ccccn2)c(F)c1.[Pt+2].c1ccc(P(C[PH+](c2ccccc2)c2ccccc2)c2ccccc2)cc1` ?
Return: 23.6

Enquiry: Param item = `O=C1NC(=Nc2ccc(Cl)cc2)S/C1=C\c1cn(-c2ccccc2)nc1-c1ccccc1` ; retrieve measured growth.
Return: 98.6

Enquiry: Value lookup for growth; key = N#CC1=C(NC=O)Oc2c(ccc3ccccc23)C1c1ccccc1 (stereo not drawn)
Return: 88.9

Enquiry: I'd like to know its growth. The compound in question is `O=C(N=c1oc2ccccc2cc1-c1cc2ccccc2[nH]1)c1ccc(Cl)cc1`
Return: 89.3

Enquiry: Field request: growth | item: Cc1ccc(-c2cc3c(cc2O)C2CCCCC2(N2CCOCC2)O3)cc1 (stereo not drawn)
Return: 110

Enquiry: If you can, please state the reported growth value of `COc1cccc(-c2nn(-c3ccccc3)cc2-c2ccnc(NCCNC(=O)Nc3ccc(Cl)c(Cl)c3)c2)c1` .
Return: 41.7

Enquiry: What measured growth goes with `CCN(CC)CCCCCCNc1cc(OC)c(Cl)c2cccnc12` ?
Return: 83

Enquiry: Name the recorded growth for `COc1cc(/C=N/Nc2ncc(-c3cc4cc5c(cc4o3)OCO5)s2)cc(OC)c1OC` .
Return: 98.2

Enquiry: Could you share which growth value was measured for `O=C(CSc1nccc(Nc2ccc(S(=O)(=O)Nc3nccs3)cc2)n1)c1ccc(F)cc1` ?
Return: 106

Enquiry: Requested field: growth. Item: `O=S(=O)(Nc1cccc(Cl)c1)c1ccc(-c2cnc(C3CC3)o2)cc1`
Return: 37.2

Enquiry: Item `COc1ccc2c(c1)C(=O)/C(=C/c1cccc(OCC(=O)Nc3nc(C)c(C)s3)c1)O2` has what recorded growth?
Return: -77.3

Enquiry: Can you look up the measured growth of `Cc1ccc(Cc2cnc(NC(=O)c3ccc4noc(-c5ccccc5)c4c3)s2)cc1` for me?
Return: 105

Enquiry: Any idea what growth was measured for CC1OC(O[C@H]2/C=C/C=C/C=C/C=C/C=C/C=C/C=C/[C@H](C)[C@@H](O)[C@@H](C)[C@H](C)OC(=O)CC(O)CC(O)CCC(O)C(O)CC(O)C[C@]3(O)C[C@H](O)C(C(=O)O)C(C2)O3)C(O)[C@H](N)C1O (stereo partly drawn) ?
Return: -21

Enquiry: Look up growth: `COc1ccc(NC(=O)c2nc(-c3cc(OC)c(OC)c(OC)c3)n(-c3cccc4ccccc34)n2)cc1OC`
Return: 56.1

Enquiry: Bench note: what growth did `Cc1ccc(/C=C2\C(=O)N(C)c3ccc(S(=O)(=O)Nc4ccc(C(C)(C)C)cc4)cc32)s1` show?
Return: 69.4
